Values were extracted from PubChem BioAssay (NCI).

Tested on: SK-MEL-28 melanoma
Assay: NCI tumour cell line growth inhibition, 48 h
Each entry below carries its recorded TGI.

[
  {
    "COMPOUND": "Cc1cc(NN)nc2n[nH]c(N)c12",
    "TESTED SYSTEM": "SK-MEL-28 melanoma",
    "TGI": "> 100 µM"
  },
  {
    "COMPOUND": "N#CCN1c2ccccc2CCC1Cl (centres undefined)",
    "TESTED SYSTEM": "SK-MEL-28 melanoma",
    "TGI": "> 10 µM"
  },
  {
    "COMPOUND": "COc1cc2c(c(OC)c1OC)-c1cccc(=O)cc1C(NC(C)=O)CC2 (centres undefined)",
    "TESTED SYSTEM": "SK-MEL-28 melanoma",
    "TGI": "> 100 µM"
  },
  {
    "COMPOUND": "c1ccc(CNCCN2CCNCC2)nc1",
    "TESTED SYSTEM": "SK-MEL-28 melanoma",
    "TGI": "> 100 µM"
  },
  {
    "COMPOUND": "COc1ccc2nc(NNC(=O)c3cnccn3)c3cccn3c2c1",
    "TESTED SYSTEM": "SK-MEL-28 melanoma",
    "TGI": "29.8 µM"
  },
  {
    "COMPOUND": "CC(=O)CC1(OC(=O)C2C(C=C(C)C)C2(C)C)C(=O)Nc2ccccc21 (centres undefined)",
    "TESTED SYSTEM": "SK-MEL-28 melanoma",
    "TGI": "> 100 µM"
  },
  {
    "COMPOUND": "C/C(=N\\O)c1ccc2cc(Br)c3ccccc3c2c1",
    "TESTED SYSTEM": "SK-MEL-28 melanoma",
    "TGI": "42.6 µM"
  },
  {
    "COMPOUND": "O=C1NC(N/N=C/c2c[nH]c3ccccc23)=N/C1=C\\c1cccs1",
    "TESTED SYSTEM": "SK-MEL-28 melanoma",
    "TGI": "> 100 µM"
  },
  {
    "COMPOUND": "O=C(O/N=C1/CCCC/C1=C\\c1ccccc1)c1ccc(Cl)c(Cl)c1",
    "TESTED SYSTEM": "SK-MEL-28 melanoma",
    "TGI": "68.4 µM"
  },
  {
    "COMPOUND": "O=C(/C=C/c1ccsc1)c1ccc(Cl)cc1",
    "TESTED SYSTEM": "SK-MEL-28 melanoma",
    "TGI": "> 100 µM"
  },
  {
    "COMPOUND": "O=C(N/S(=N/S(=O)(=O)c1ccc(Br)cc1)C(Cl)(Cl)Cl)c1ccccc1 (centres undefined)",
    "TESTED SYSTEM": "SK-MEL-28 melanoma",
    "TGI": "> 100 µM"
  },
  {
    "COMPOUND": "S=C(/C=C1\\SC(=Nc2ccccc2)C(=Nc2ccccc2)N1c1ccccc1)Nc1ccccc1",
    "TESTED SYSTEM": "SK-MEL-28 melanoma",
    "TGI": "> 100 µM"
  },
  {
    "COMPOUND": "O=C1C=CC(=O)c2c(O)c(NCCCN3CCOCC3)c(Cl)c(O)c21",
    "TESTED SYSTEM": "SK-MEL-28 melanoma",
    "TGI": "3.17 µM"
  },
  {
    "COMPOUND": "N#Cc1nn(C(N)=O)c(N)c1C#N",
    "TESTED SYSTEM": "SK-MEL-28 melanoma",
    "TGI": "> 100 µM"
  },
  {
    "COMPOUND": "CCCC(c1nnnn1C1CCCCC1)N1CCN(C(=O)c2ccco2)CC1 (centres undefined)",
    "TESTED SYSTEM": "SK-MEL-28 melanoma",
    "TGI": "> 100 µM"
  },
  {
    "COMPOUND": "CCOC(=O)NC(Nc1ncn(C(NC(=O)OCC)(C(F)(F)F)C(F)(F)F)n1)(C(F)(F)F)C(F)(F)F",
    "TESTED SYSTEM": "SK-MEL-28 melanoma",
    "TGI": "> 100 µM"
  },
  {
    "COMPOUND": "Cc1cc2c([nH]1)CSc1cc(S(=O)(=O)c3ccccc3)c(=O)[nH]c1-2",
    "TESTED SYSTEM": "SK-MEL-28 melanoma",
    "TGI": "42.5 µM"
  },
  {
    "COMPOUND": "Clc1ccc(CCC(Cn2ccnc2)Sc2c(Cl)cccc2Cl)cc1 (centres undefined)",
    "TESTED SYSTEM": "SK-MEL-28 melanoma",
    "TGI": "19.5 µM"
  },
  {
    "COMPOUND": "CS(=O)(=O)Nc1cc(-c2ccc3ncnc(Nc4ccc5c(cnn5Cc5cccc(F)c5)c4)c3c2)cnc1Cl",
    "TESTED SYSTEM": "SK-MEL-28 melanoma",
    "TGI": "1.86 µM"
  },
  {
    "COMPOUND": "COC(=O)C(CC(=O)c1ccccc1)c1ccccc1NC(C)=O (centres undefined)",
    "TESTED SYSTEM": "SK-MEL-28 melanoma",
    "TGI": "> 100 µM"
  },
  {
    "COMPOUND": "CC(=O)OC1COC(N2CCc3ccccc32)C(OC(C)=O)C1OC(C)=O (centres undefined)",
    "TESTED SYSTEM": "SK-MEL-28 melanoma",
    "TGI": "> 100 µM"
  },
  {
    "COMPOUND": "O=[N+]([O-])O",
    "TESTED SYSTEM": "SK-MEL-28 melanoma",
    "TGI": "> 100 µM"
  },
  {
    "COMPOUND": "C=C1CC(Cn2ccc(=O)[nH]c2=O)(c2ccc(OC)cc2)OC1=O (centres undefined)",
    "TESTED SYSTEM": "SK-MEL-28 melanoma",
    "TGI": "33 µM"
  },
  {
    "COMPOUND": "C=CCCC1CCCNC1=S (centres undefined)",
    "TESTED SYSTEM": "SK-MEL-28 melanoma",
    "TGI": "> 100 µM"
  },
  {
    "COMPOUND": "C[n+]1c(-c2ccccc2)cc2/c(=C\\c3ccccc3)c3ccccc3n21",
    "TESTED SYSTEM": "SK-MEL-28 melanoma",
    "TGI": "2.73 µM"
  },
  {
    "COMPOUND": "CC[C@@]1(O)C[C@H](OC2CC(N(C)C)C(OC3CC(O)C(OC4CC(O)C(O)C(C)O4)C(C)O3)C(C)O2)c2c(cc3c(c2O)C(=O)c2c(O)ccc(O)c2C3=O)[C@H]1C(=O)OC (some centres undefined)",
    "TESTED SYSTEM": "SK-MEL-28 melanoma",
    "TGI": "0.293 µM"
  },
  {
    "COMPOUND": "COc1ccccc1N1C(=O)/C(=C\\c2cc(OC)c(OC)c(OC)c2)SC1c1ccccc1 (centres undefined)",
    "TESTED SYSTEM": "SK-MEL-28 melanoma",
    "TGI": "> 100 µM"
  },
  {
    "COMPOUND": "C[C@H]1COC(c2ccccn2)=N1",
    "TESTED SYSTEM": "SK-MEL-28 melanoma",
    "TGI": "> 100 µM"
  },
  {
    "COMPOUND": "O=C1/C(=C/c2ccccc2)CN(C(=O)C(F)(F)F)C/C1=C\\c1ccccc1",
    "TESTED SYSTEM": "SK-MEL-28 melanoma",
    "TGI": "3.45 µM"
  },
  {
    "COMPOUND": "COc1ccc(C2N(c3ccc(F)c([N+](=O)[O-])c3)C(=O)N3C(c4ccc(OC)cc4)N(c4ccc(F)c([N+](=O)[O-])c4)C(=O)N23)cc1 (centres undefined)",
    "TESTED SYSTEM": "SK-MEL-28 melanoma",
    "TGI": "> 100 µM"
  },
  {
    "COMPOUND": "C=CN1CCN(c2ccccc2)P1(=O)Oc1ccccc1 (centres undefined)",
    "TESTED SYSTEM": "SK-MEL-28 melanoma",
    "TGI": "> 100 µM"
  },
  {
    "COMPOUND": "Cc1cc(OCC(O)CO)ccc1-c1ccccc1 (centres undefined)",
    "TESTED SYSTEM": "SK-MEL-28 melanoma",
    "TGI": "> 100 µM"
  },
  {
    "COMPOUND": "Cn1cc(-c2nc3c(F)cc4[nH]ncc4c3c3c2CCCC3)c(C(F)(F)F)n1",
    "TESTED SYSTEM": "SK-MEL-28 melanoma",
    "TGI": "74.8 µM"
  },
  {
    "COMPOUND": "N=c1oc2c(O)c(O)ccc2cc1C(N)=O",
    "TESTED SYSTEM": "SK-MEL-28 melanoma",
    "TGI": "> 100 µM"
  },
  {
    "COMPOUND": "O=c1[nH]cnc2c(COCCCO)c[nH]c12",
    "TESTED SYSTEM": "SK-MEL-28 melanoma",
    "TGI": "> 100 µM"
  },
  {
    "COMPOUND": "COc1cccc2c1-c1ccccc1[C@H](Nc1ccccc1)[C@@]2(C)O",
    "TESTED SYSTEM": "SK-MEL-28 melanoma",
    "TGI": "26.7 µM"
  },
  {
    "COMPOUND": "N#C/C(=C\\c1cc(F)cc(F)c1)c1ccccn1",
    "TESTED SYSTEM": "SK-MEL-28 melanoma",
    "TGI": "> 100 µM"
  },
  {
    "COMPOUND": "CCOC(=O)c1nc2cc(C(F)(F)F)ccc2nc1Nc1cc(OC)c(OC)c(OC)c1",
    "TESTED SYSTEM": "SK-MEL-28 melanoma",
    "TGI": "> 100 µM"
  },
  {
    "COMPOUND": "COc1ccc(CCn2c3c(c4c(O)cccc42)C(=O)c2ccccc2-3)cc1OC",
    "TESTED SYSTEM": "SK-MEL-28 melanoma",
    "TGI": "> 100 µM"
  },
  {
    "COMPOUND": "COc1ccc2nc3ccccc3c(NCCN(C)CCCl)c2c1",
    "TESTED SYSTEM": "SK-MEL-28 melanoma",
    "TGI": "3.97 µM"
  },
  {
    "COMPOUND": "O=S1CCN(Cc2ccc(-c3ccc4ncnc(Nc5ccc(OCc6cccc(F)c6)c(Cl)c5)c4c3)o2)CC1",
    "TESTED SYSTEM": "SK-MEL-28 melanoma",
    "TGI": "> 25 µM"
  },
  {
    "COMPOUND": "N#CCCOc1cccc(C2(N3CCCCC3)CCCCC2)c1",
    "TESTED SYSTEM": "SK-MEL-28 melanoma",
    "TGI": "> 100 µM"
  },
  {
    "COMPOUND": "NC(N)=N/N=C(/CC1OC(=O)c2ccccc21)c1ccc2ccccc2c1 (centres undefined)",
    "TESTED SYSTEM": "SK-MEL-28 melanoma",
    "TGI": "35.2 µM"
  },
  {
    "COMPOUND": "COc1cc(/C=N/Nc2ncnc3[nH]ncc23)ccc1O",
    "TESTED SYSTEM": "SK-MEL-28 melanoma",
    "TGI": "> 25 µM"
  }
]
